These entries and their values trace back to patent US7282512B2.

- measured target: human cathepsin V (Homo sapiens)
- Sequence (O60911 114-334): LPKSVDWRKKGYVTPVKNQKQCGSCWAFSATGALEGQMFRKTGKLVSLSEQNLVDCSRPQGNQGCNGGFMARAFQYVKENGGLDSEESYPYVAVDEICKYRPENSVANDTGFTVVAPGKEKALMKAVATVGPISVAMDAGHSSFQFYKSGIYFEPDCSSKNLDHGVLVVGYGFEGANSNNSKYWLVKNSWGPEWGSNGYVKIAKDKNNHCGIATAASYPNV
- method summary: cathepsin V inhibition assay, fluorogenic substrate Cbz-Phe-Arg-AMC
- conditions used: Table 2; human recombinant enzyme, 2 μM substrate; read-out: hCat V Ki
assay endpoint: Ki

Use these answered entries as a reference point.
>>> observed_result("CCCC[C@H](NC(=O)OC1(c2nc3ccccc3s2)CCCC1)C(=O)C(=O)Nc1ccn[nH]1")
"10 to 100 nM"
>>> observed_result("CCCC[C@H](NC(=O)OCC1(Cc2ccc(F)cc2)CCC1)C(=O)C(=O)Nc1n[nH]c2cc(Cl)ccc12")
"1 to 10 nM"

Give reported Ki value for `CCCC[C@H](NC(=O)OC1(Cc2ccccc2)CCCC1)C(=O)C(=O)N[C@@H](C)C(=O)OCc1ccccc1`
> 1000 nM
